B1: library; numbered along this chain (parent)
chain: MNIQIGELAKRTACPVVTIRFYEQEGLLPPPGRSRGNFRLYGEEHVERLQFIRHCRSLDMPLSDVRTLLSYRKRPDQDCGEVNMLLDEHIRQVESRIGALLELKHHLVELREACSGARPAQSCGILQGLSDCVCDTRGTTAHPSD

# Variants of: B1
# protocol: sfGFP reporter fluorescence (15 h) (µM FITC); higher = higher leak
# condition-set: library round: Round 0; ligand: none
Listed here are variants together with their documented sfGFP reporter fluorescence.
Please give only the number in your answer, with no unit.

C123N	0.0599
H89T	0.0614
N83D	0.0614
L126T	0.0596
P30L	0.0614
G36E	0.0599
Y41K	0.0605
I3K	0.0608
R111V	0.0586
M60Q	0.0603

Q. Any idea what sfGFP reporter fluorescence was measured for "D76A" ?
A. 0.0616

Q. What do you have for "G6T" ?
A. 0.0594

Q. Item: "G6Y"
A. 0.0603

Q. // next record "L68Q"
A. 0.0603

Q. Now this one: "L85Q"
A. 0.0586

Q. Please answer likewise for "H106A"
A. 0.0596

Q. What about this variant? "S57A"
A. 0.059

Q. Repeat with "C55Y"
A. 0.0601

Q. Check "R39N" too.
A. 0.061

Q. And for "G128N" ?
A. 0.0614

Q. And "I125K" ?
A. 0.0599

Q. # iterate: "L68S"
A. 0.061

Q. Again, but for "P119A"
A. 0.0599

Q. What do you get for "I125H" ?
A. 0.0601

Q. Another: "E47A"
A. 0.0612

Q. Likewise for "C123R" ?
A. 0.0599

Q. Okay, and "L27P" ?
A. 0.0607

Q. Next record, please: "N83M"
A. 0.061

Q. Moving on to "V46Y"
A. 0.0588

Q. // next record "D131C"
A. 0.0592

Q. Next variant up: "C55N"
A. 0.0594

Q. Same for "D135L"
A. 0.059

Q. Same lookup for "L126S" , please.
A. 0.0592
